Data provenance: ChEMBL document CHEMBL5512601

Provide the reported IC50 of each item.
Target: Mitogen-activated protein kinase kinase kinase 5 (Homo sapiens)
Sequence (Q99683 whole entry): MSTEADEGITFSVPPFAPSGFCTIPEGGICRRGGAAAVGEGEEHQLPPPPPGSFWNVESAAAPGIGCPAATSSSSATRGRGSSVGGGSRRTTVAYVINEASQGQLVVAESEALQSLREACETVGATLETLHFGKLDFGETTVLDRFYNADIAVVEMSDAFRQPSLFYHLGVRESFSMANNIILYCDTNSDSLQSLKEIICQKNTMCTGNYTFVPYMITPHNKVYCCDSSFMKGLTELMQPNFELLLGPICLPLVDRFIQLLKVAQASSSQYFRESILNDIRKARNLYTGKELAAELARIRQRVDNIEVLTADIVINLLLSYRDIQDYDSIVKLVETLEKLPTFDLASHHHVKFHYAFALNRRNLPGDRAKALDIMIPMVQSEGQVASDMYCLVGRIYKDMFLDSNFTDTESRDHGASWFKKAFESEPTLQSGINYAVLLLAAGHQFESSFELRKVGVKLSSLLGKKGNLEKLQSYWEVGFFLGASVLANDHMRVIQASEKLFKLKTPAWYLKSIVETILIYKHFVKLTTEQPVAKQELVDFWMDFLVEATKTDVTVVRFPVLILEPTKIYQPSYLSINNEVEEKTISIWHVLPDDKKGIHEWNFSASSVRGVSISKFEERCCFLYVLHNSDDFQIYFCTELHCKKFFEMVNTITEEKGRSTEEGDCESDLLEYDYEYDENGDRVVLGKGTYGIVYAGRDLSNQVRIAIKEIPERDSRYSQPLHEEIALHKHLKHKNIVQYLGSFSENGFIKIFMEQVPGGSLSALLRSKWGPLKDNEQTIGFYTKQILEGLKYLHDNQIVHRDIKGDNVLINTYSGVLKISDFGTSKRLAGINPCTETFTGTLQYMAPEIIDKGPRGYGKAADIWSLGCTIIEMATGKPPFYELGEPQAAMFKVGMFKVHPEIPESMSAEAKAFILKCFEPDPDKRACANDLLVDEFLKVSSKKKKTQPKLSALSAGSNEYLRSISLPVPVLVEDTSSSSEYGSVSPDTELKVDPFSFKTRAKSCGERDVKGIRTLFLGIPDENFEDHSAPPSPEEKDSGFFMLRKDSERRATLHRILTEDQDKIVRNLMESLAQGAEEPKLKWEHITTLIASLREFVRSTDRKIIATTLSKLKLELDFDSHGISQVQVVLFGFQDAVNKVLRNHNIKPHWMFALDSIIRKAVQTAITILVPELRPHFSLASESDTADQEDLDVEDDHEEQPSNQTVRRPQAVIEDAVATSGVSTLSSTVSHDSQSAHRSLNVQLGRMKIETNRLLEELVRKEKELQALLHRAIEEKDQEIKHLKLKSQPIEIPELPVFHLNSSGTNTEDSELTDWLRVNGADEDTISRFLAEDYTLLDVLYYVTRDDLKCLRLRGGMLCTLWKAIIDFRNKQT
Test: Inhibition of ASK1 (unknown origin)

Query block: Entry CC(C)n1cnnc1-c1cccc(NC(=O)c2cc3c(cc2F)CNCc2c(C4CC4)ncn2-3)n1 : reported IC50 = ?
Result block: < 0.01 µM

Query block: Another compound: CC(C)n1cnnc1-c1cccc(NC(=O)c2cc3c(cc2F)CNCCc2c(C4CC4)ncn2-3)n1
Result block: < 0.01 µM

Query block: Another compound: CC(C)n1cnnc1-c1cccc(NC(=O)c2cc3c(cc2F)COCc2nc(C4CC4)cn2-3)n1
Result block: < 0.01 µM

Query block: Another compound: CC(C)n1cnnc1-c1nc(NC(=O)c2cc3c(cc2F)C(=O)NCc2nc(C4CC4)cn2-3)cs1
Result block: > 0.05 µM

Query block: Another compound: CC(C)n1cnnc1-c1cccc(NC(=O)c2cc3c(cc2F)CNCc2nc(C4CC4)cn2-3)n1
Result block: < 0.01 µM

Query block: Another compound: CC(C)n1cnnc1-c1nc(NC(=O)c2cc3c(cc2F)CCCc2nc(C4CC4)cn2-3)cs1
Result block: > 0.05 µM

Query block: Another compound: CC(C)n1cnnc1-c1nc(NC(=O)c2cc3c(cc2F)CNCc2nc(C4CC4)cn2-3)cs1
Result block: > 0.05 µM

Query block: Another compound: CC(C)n1cnnc1-c1cccc(NC(=O)c2cc3c(cc2F)CCCc2nc(C4CC4)cn2-3)n1
Result block: < 0.01 µM
